Test system: Caco-2 cells
run.description: Cytotoxicity in Caco-2 cells, CCK-8 assay
Assay type: cell-based, human
setup.conditions: Caco-2, concentration 10 μmol/L, mean
Let's look at some compounds and their measured Cell survival rate%.

>  <compound>
C[C@@H]1CC[C@H]2[C@@H](C)C(=O)O[C@@H]3O[C@@]4(C)CC[C@@H]1[C@]32O4 [DEART, Deoxyartemisinin]

>  <Cell survival rate%, %>
84.40

$$$$
>  <compound>
C=C(C(=O)O)[C@@H]1CC[C@@H](C)[C@@H]2CCC(C)=C[C@@H]21 [AA, Artemisinic acid]

>  <Cell survival rate%, %>
82.87

$$$$
>  <compound>
CC1=C[C@H]2[C@@H](CC1)[C@H](C)CC[C@H]2[C@@H](C)C(=O)O [DHAA, Dihydroartemisinic acid]

>  <Cell survival rate%, %>
85.98

$$$$
>  <compound>
C[C@@H]1CC[C@H]2[C@@H](C)C(=O)O[C@@H]3O[C@@]4(C)CC[C@@H]1[C@]32OO4 [ART, Artemisinin, reference compound]

>  <Cell survival rate%, %>
82.42

$$$$

Attribution: paper PMC12058161
